Hello, the source for this data is paper PMC9482650, in case you need it.

# target_under_test: FRMPD2_2, Q68DX3
# Sequence (Q68DX3 944-1038): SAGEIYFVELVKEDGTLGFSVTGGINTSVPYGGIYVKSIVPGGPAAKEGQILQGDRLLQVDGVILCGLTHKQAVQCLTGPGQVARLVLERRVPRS
# protocol_text: holdup assay
# Design: key: below the threshold = too weak to quantify, mostly under pKd 3.1 to 4
# assay_conditions: plain residues with an end cap or a label only (N-terminal biotin on a linker: ttds)
property_label: pKd

1. SVWLRKETRV [CYSLTR2, Q9NS75] = 3.6
2. VLRLQSETSV [VANGL1, Q8TAA9] = 3.72
